These data points were gathered from paper PMC9860392.

Target: T1, Twinkle CTD (C-terminal domain plus linker) (Homo sapiens, UniProt Q96RR1 360-684)
T1 sequence: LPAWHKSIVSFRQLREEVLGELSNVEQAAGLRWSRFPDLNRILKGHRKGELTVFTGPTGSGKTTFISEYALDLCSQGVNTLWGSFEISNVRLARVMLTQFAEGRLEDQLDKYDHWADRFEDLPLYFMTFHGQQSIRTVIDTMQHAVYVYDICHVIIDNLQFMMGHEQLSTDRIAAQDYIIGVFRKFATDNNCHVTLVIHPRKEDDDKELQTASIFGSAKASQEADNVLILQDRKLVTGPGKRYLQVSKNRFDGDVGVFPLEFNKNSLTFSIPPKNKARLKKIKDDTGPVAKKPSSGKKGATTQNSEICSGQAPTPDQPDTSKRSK
Experiment: fluorescence anisotropy; 50 mM NaCl; 50 mM Tris acetate pH 7.5, 10% glycerol, 0.05% Tween-20, 0.5 mM DTT, 0 or 50 mM NaCl; 2.5 nM DNA; no Mg2+ or nucleotide listed; temperature not stated
Details: protein: recombinant; tags: SUMO tag removed (ULP1); chain copies: 6; label: 3' fluorescein-T; single strand
readoutLabel: pKd
Conceptually, pKd converts a concentration in mol/L into minus its log10.

Prompt: Please give the documented pKd of TGTGTTAGTTGGGGGGTGACTGTTAAAAGT (ssDNA) [30 nt ssDNA]
Response: 8.35

Further cases:
Prompt: Please give the documented pKd of TGCTATAACTCTTGAACACT (ssDNA) [20 nt ssDNA]
Response: 7.30
